- SYSTEM_UNDER_TEST: T1, PSMA Fab
- T1 construct: also called Anti-PSMA Fab; 006 PSMA Fab
- ASSAY_DETAILS: phage ELISA; biotinylated PSMA Fab on neutravidin plate, clonal phage supernatant, anti-M13 HRP detection, blocking buffer alone
REPORTED_ENDPOINT: Phage binding ELISA signal, Anti-PSMA Fab

>  <BINDER>
YEKWCIPAWMCHVA (Peptide-180 library clone, tested as clonal phage supernatant) [Phage-2367]

>  <TEST_VALUE>
1.41

$$$$
>  <BINDER>
EEKMCKPSWMCQLF (Peptide-180 library clone, tested as clonal phage supernatant) [Phage-2362]

>  <TEST_VALUE>
1.41

$$$$
>  <BINDER>
INKWCIPEWMCAAM (Peptide-180 library clone, tested as clonal phage supernatant) [Phage-2366]

>  <TEST_VALUE>
1.41

$$$$
>  <BINDER>
QVQWCIPPWMCLED (Peptide-180 library clone, tested as clonal phage supernatant) [Phage-2372]

>  <TEST_VALUE>
1.4

$$$$
>  <BINDER>
GLGWCTPTWMCEGF (Peptide-180 library clone, tested as clonal phage supernatant) [Phage-2369]

>  <TEST_VALUE>
1.4

$$$$
>  <BINDER>
GANLCIPPWMCLSS (Peptide-180 library clone, tested as clonal phage supernatant) [Phage-2364]

>  <TEST_VALUE>
1.41

$$$$
>  <BINDER>
VDKWCIPSWMCEFY (Peptide-180 library clone, tested as clonal phage supernatant) [Phage-2371]

>  <TEST_VALUE>
1.4

$$$$
>  <BINDER>
DGVWCVPQWMCDGY (Peptide-180 library clone, tested as clonal phage supernatant) [Phage-2368]

>  <TEST_VALUE>
1.4

$$$$
>  <BINDER>
EEKWCRPAWMCEHA (Peptide-180 library clone, tested as clonal phage supernatant) [Phage-2360]

>  <TEST_VALUE>
1.42

$$$$
>  <BINDER>
ITPWCIPPWMCPGP (Peptide-180 library clone, tested as clonal phage supernatant) [Phage-2361]

>  <TEST_VALUE>
1.42

$$$$
>  <BINDER>
LEKWCIPSWMCSTL (Peptide-180 library clone, tested as clonal phage supernatant) [Phage-2370]

>  <TEST_VALUE>
1.4

$$$$
>  <BINDER>
AEKLCKPAWMCNNM (Peptide-180 library clone, tested as clonal phage supernatant) [Phage-2365]

>  <TEST_VALUE>
1.41

$$$$
>  <BINDER>
AANWCTPPWMCLGF (Peptide-180 library clone, tested as clonal phage supernatant) [Phage-2359]

>  <TEST_VALUE>
1.42

$$$$
>  <BINDER>
AERWCIPDWMCNVI (Peptide-180 library clone, tested as clonal phage supernatant) [Phage-2363]

>  <TEST_VALUE>
1.41

$$$$
